tgt: T1, human beta-Klotho (human, UniProt Q86Z14 1-1044)
T1 sequence (looked up): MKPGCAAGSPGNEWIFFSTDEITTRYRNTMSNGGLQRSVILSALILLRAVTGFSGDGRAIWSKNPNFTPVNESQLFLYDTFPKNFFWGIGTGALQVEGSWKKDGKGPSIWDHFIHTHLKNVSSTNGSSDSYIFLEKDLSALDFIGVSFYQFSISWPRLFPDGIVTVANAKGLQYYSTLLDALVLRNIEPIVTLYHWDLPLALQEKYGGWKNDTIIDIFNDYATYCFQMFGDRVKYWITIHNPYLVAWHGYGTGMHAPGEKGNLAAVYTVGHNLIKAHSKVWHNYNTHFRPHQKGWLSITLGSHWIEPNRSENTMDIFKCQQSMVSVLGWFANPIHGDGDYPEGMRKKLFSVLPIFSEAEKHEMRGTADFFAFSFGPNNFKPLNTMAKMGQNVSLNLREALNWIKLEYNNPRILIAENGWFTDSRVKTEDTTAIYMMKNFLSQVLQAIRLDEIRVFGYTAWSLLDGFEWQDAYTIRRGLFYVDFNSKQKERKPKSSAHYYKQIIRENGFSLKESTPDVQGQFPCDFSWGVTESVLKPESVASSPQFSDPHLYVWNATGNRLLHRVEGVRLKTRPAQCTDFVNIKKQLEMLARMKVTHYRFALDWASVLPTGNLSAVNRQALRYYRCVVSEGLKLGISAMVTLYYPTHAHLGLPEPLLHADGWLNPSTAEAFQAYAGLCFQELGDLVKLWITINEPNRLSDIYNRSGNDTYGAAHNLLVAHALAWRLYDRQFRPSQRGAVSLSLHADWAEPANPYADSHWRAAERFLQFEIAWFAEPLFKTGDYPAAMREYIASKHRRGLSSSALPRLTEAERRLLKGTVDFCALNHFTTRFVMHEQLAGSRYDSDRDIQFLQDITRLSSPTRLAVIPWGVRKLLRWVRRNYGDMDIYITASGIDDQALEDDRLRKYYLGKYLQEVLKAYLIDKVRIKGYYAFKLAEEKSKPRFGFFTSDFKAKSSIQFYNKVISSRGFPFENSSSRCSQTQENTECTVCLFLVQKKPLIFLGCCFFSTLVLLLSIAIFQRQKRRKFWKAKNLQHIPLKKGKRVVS
test name: cell-based or functional assay
readout: pERK-HEK293-Beta-klotho without HSA [EC50 (nM)] Median Value
Respond with the bare value in nM.

Q: Need pERK-HEK293-Beta-klotho without HSA [EC50 (nM)] Median Value, item (145aP, 145bM, L146V, P149E, G151E, I152D, A154R, P155G, Q156H, P157L, P158E, D159S, V160D, G161M, S162F, D164S, S167E, M168T, V169D, G170S, P171M, S172D, … (ligand) MHPIPDSSPLLQFGGQVRQRYLYTDDAQQTEAHLEIREDGTVGGAADQSPESLLQLKALKPGVIQILGVKTSRFLCQRPDGALYGSLHFDPEACSFRELLLEDGYNVYQSEAHGLPLHLPGNKSPHRDPAPRGPARFLPLPGLPPAPMVPEEPEDLRGHLESDMFSSPLETDSMDPFGLVTGLEAVRSPSFEK
Result: 17

Q: Need pERK-HEK293-Beta-klotho without HSA [EC50 (nM)] Median Value, item (Q15F) Met-FGF21 (ligand) MHPIPDSSPLLQFGGFVRQRYLYTDDAQQTEAHLEIREDGTVGGAADQSPESLLQLKALKPGVIQILGVKTSRFLCQRPDGALYGSLHFDPEACSFRELLLEDGYNVYQSEAHGLPLHLPGNKSPHRDPAPRGPARFLPLPGLPPALPEPPGILAPQPPDVGSSDPLSMVGPSQGRSPSYAS
Result: 3.3

Q: Need pERK-HEK293-Beta-klotho without HSA [EC50 (nM)] Median Value, item (S71C, L166F, S167G, M168L, 169aT, P171L, S172E, Q173A, G174V, Y179F, A180E, S181K) Gly-FGF21 (ligand) GHPIPDSSPLLQFGGQVRQRYLYTDDAQQTEAHLEIREDGTVGGAADQSPESLLQLKALKPGVIQILGVKTCRFLCQRPDGALYGSLHFDPEACSFRELLLEDGYNVYQSEAHGLPLHLPGNKSPHRDPAPRGPARFLPLPGLPPALPEPPGILAPQPPDVGSSDPFGLVTGLEAVRSPSFEK
Result: 1.4

Q: Need pERK-HEK293-Beta-klotho without HSA [EC50 (nM)] Median Value, item Gly-FGF21 (ligand) GHPIPDSSPLLQFGGQVRQRYLYTDDAQQTEAHLEIREDGTVGGAADQSPESLLQLKALKPGVIQILGVKTSRFLCQRPDGALYGSLHFDPEACSFRELLLEDGYNVYQSEAHGLPLHLPGNKSPHRDPAPRGPARFLPLPGLPPALPEPPGILAPQPPDVGSSDPLSMVGPSQGRSPSYAS
Result: 2.1

Q: Need pERK-HEK293-Beta-klotho without HSA [EC50 (nM)] Median Value, item (K56R, K59R, K69R, K122R) Gly-FGF21 derivative of Example 46 (ligand, N-alpha-1-[2-(2-{2-[2-(2-{2-[(S)-4-carboxy-4-(17-carboxy-heptadecanoylamino)-butyrylamino]-ethoxy}-ethoxy)-acetylamino]-ethoxy}-ethoxy)-acetyl] on the N-terminal alpha amino group) GHPIPDSSPLLQFGGQVRQRYLYTDDAQQTEAHLEIREDGTVGGAADQSPESLLQLRALRPGVIQILGVRTSRFLCQRPDGALYGSLHFDPEACSFRELLLEDGYNVYQSEAHGLPLHLPGNRSPHRDPAPRGPARFLPLPGLPPALPEPPGILAPQPPDVGSSDPLSMVGPSQGRSPSYAS
Result: 3.9

Q: Need pERK-HEK293-Beta-klotho without HSA [EC50 (nM)] Median Value, item (S71C, N121Q, L166F, S167G, M168L, 169aT, P171L, S172E, Q173A, G174V, Y179F, A180E, S181K) Gly-FGF21 (ligand) GHPIPDSSPLLQFGGQVRQRYLYTDDAQQTEAHLEIREDGTVGGAADQSPESLLQLKALKPGVIQILGVKTCRFLCQRPDGALYGSLHFDPEACSFRELLLEDGYNVYQSEAHGLPLHLPGQKSPHRDPAPRGPARFLPLPGLPPALPEPPGILAPQPPDVGSSDPFGLVTGLEAVRSPSFEK
Result: 1.1
